Source listed as patent US10508113B2.

target: Jak2 (Homo sapiens); construct: Cell Type: UT7 cells engineered to express the erythropoietin (EPO) receptor; endogenous in cells; host or cells: UT7 cells engineered to express the EPO receptor; test: Jak2 (PSTATS UT7) alpha screen assay: inhibition of EPO induced phosphorylation of STAT5 in UT7 cells; assay type: cell-based; settings: calculated from tabulated EC50 data (Jak2 / Tyk2)
Sequence (O60674 whole entry): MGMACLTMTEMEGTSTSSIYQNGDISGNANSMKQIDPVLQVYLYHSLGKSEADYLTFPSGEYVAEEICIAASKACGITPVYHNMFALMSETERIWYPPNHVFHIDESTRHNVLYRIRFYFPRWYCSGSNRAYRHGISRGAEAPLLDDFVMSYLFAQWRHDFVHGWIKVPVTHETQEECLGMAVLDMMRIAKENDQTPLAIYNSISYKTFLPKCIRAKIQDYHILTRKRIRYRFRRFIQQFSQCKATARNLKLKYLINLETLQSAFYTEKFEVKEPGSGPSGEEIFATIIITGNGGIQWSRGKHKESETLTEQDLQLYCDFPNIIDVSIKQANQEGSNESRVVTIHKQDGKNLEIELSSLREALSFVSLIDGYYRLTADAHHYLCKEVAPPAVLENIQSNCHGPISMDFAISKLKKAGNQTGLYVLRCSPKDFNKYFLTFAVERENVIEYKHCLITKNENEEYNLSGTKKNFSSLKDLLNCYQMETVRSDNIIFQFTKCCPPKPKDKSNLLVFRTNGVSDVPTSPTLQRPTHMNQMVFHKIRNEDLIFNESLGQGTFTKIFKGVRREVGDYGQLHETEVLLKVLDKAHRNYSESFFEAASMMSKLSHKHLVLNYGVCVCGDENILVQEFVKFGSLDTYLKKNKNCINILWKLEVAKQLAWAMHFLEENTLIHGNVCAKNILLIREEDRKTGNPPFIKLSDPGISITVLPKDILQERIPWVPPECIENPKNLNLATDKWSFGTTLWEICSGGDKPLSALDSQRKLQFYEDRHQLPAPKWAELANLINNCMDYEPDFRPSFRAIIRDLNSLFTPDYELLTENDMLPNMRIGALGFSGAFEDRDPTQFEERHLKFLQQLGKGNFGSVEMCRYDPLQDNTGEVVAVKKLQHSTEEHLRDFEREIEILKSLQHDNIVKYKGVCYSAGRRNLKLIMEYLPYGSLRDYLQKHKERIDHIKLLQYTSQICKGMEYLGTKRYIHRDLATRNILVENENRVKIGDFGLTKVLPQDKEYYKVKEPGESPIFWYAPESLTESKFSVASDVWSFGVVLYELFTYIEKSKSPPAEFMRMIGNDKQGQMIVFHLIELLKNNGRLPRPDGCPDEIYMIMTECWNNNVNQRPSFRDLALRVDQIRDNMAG
As shown below, each of these molecules has a reported Tyk2 selectivity over Jak2 value.

{"columns": ["Molecule", "Tyk2 selectivity over Jak2"],
 "data": [
  ["CO[C@@]1(c2cc(OCC3COC3)cc(-c3cn(C)c4cnc(NC(C)=O)cc34)n2)CCOC1 [Example 6]", ">500-fold"],
  ["CO[C@@]1(c2cncc(-c3cn(C)c4cnc(NC(N)=O)cc34)n2)CCOC1 [Example 12]", ">102-fold"],
  ["CO[C@@]1(c2cc(C(F)F)cc(-c3cn([C@H]4C[C@H](C#N)C4)c4cnc(NC(C)=O)cc34)n2)CCOC1 [Example 17.2]", ">174-fold"]
]}

Given the entry CO[C@@]1(c2cccc(-c3cn([C@@H]4CC4(F)F)c4cnc(NC(N)=O)cc34)n2)CCOC1 [Example 1.2] , report its measured Tyk2 selectivity over Jak2.
>556-fold

====

molecular target: Tyk2/Jak2 (Homo sapiens); construct: Cell Type: Frozen primary phytohemagglutinin (PHA) T-Blasts; endogenous in cells; assay: Tyk2 (Tyk2/Jak2 PSTAT4 T-Blast) alpha screen assay: inhibition of IL-12 induced phosphorylation of STAT4 in T-blast cells; conditions: IL-12 induced pSTAT4, T-blast cells
Sequence (P29597 whole entry, other chains not shown): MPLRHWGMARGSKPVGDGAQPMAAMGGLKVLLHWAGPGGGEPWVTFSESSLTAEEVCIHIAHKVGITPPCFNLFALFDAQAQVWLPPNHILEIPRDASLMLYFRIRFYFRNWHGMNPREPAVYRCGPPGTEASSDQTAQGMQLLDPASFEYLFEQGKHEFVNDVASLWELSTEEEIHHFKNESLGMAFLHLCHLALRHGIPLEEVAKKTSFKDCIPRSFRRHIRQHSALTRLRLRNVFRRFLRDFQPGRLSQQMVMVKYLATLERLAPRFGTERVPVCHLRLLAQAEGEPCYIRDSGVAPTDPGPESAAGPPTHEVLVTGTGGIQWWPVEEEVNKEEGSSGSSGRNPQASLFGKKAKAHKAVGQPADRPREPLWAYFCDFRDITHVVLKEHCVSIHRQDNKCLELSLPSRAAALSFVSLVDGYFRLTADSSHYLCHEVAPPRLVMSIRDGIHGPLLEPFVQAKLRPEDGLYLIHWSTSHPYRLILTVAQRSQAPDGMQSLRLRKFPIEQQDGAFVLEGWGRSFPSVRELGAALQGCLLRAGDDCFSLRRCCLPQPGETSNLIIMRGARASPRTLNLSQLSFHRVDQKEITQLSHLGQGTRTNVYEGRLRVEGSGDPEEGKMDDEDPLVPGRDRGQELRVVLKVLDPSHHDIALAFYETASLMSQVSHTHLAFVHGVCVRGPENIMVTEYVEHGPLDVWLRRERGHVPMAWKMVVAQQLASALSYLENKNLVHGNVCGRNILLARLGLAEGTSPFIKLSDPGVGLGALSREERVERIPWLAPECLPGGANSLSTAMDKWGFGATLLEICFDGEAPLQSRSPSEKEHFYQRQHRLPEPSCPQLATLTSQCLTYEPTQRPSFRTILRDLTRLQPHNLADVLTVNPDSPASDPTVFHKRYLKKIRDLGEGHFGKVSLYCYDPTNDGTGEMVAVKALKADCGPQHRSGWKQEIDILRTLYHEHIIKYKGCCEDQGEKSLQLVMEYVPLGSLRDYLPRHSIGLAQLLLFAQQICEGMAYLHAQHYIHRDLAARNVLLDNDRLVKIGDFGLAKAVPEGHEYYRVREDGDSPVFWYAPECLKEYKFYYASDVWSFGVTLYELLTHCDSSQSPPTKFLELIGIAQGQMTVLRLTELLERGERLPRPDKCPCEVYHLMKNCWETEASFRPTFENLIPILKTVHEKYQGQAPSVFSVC
pEC50: −log10 of the molar value.
Observable: pEC50

{"columns": ["Molecule", "Study Target", "Observable", "Test Result"],
 "data": [
  ["COCc1cc(-c2cn(C)c3cnc(NC(C)=O)cc23)nc([C@]2([C@@H](C)O)CCOC2)c1", "Tyk2/Jak2 (Homo sapiens)", "pEC50", 6.95]
]}

I. COCc1cc(-c2cn(C)c3cnc(NC(C)=O)cc23)nc([C@]2([C@H](C)O)CCOC2)c1
II. CC(=O)Nc1cc2c(-c3cccc([C@@]4(CO)CCOC4)n3)c[nH]c2cn1 [21-NH (R-isomer)]
// which entry has the larger pEC50 value, I or II ? Bench note: the answer is the label of the chosen record.
I

====

target: Jak1 (Homo sapiens); construct: endogenous in cells; assay: Jak1 (PSTAT3 TF1) alpha screen assay: inhibition of IL-6 induced phosphorylation of STAT3 in TF1 cells; details: IL-6 induced pSTAT3, TF1 cells
Sequence (P23458 whole entry): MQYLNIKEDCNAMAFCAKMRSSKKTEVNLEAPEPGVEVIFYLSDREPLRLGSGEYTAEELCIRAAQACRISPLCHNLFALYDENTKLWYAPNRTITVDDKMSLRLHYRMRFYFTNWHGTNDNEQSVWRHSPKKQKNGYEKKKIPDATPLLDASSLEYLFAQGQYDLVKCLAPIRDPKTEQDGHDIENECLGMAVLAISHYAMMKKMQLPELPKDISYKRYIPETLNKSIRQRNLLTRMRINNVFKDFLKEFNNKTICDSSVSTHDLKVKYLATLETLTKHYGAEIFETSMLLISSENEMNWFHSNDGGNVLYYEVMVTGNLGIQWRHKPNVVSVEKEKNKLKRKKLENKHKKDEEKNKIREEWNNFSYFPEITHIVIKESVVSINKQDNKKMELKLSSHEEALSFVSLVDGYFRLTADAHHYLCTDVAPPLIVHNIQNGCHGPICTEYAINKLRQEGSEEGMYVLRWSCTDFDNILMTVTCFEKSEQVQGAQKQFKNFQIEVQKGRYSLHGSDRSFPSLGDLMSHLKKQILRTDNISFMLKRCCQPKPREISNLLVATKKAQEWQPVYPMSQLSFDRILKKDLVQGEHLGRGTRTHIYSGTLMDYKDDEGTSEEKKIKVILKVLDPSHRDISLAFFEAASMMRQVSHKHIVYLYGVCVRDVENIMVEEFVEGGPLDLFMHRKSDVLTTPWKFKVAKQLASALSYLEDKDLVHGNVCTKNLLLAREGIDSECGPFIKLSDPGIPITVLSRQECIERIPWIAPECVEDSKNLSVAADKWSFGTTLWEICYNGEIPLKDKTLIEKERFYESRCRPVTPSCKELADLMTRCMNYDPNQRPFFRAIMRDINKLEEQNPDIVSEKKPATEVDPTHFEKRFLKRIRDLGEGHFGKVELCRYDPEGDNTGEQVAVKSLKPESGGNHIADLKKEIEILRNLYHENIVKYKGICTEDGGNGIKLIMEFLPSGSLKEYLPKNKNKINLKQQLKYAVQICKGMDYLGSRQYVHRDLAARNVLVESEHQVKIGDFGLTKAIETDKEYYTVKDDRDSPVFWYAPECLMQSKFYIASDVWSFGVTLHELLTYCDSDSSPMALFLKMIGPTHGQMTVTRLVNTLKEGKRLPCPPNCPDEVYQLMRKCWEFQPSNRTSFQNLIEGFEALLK
Observable: EC50 (µM)

A. COCc1cc(-c2cn(C)c3cnc(NC(C)=O)cc23)nc([C@]2([C@H](C)O)CCOC2)c1
B. COCc1cc(-c2cn(C)c3cnc(NC(C)=O)cc23)nc([C@]2([C@@H](C)O)CCOC2)c1
Hello, I am sorting some records. Could you say if A or B has the smaller EC50 value? Pick one and reply with its label.
A
(A: 12.9 µM, B: 27.2 µM)

====

Reported Tyk2 selectivity over Jak2 values for a set of compounds
target: Jak2 (Homo sapiens); construct: Cell Type: UT7 cells engineered to express the erythropoietin (EPO) receptor; endogenous in cells; host or cells: UT7 cells engineered to express the EPO receptor; experiment: Jak2 (PSTATS UT7) alpha screen assay: inhibition of EPO induced phosphorylation of STAT5 in UT7 cells; assay type: cell-based; conditions: calculated from tabulated EC50 data (Jak2 / Tyk2)

{"columns": ["Query Smiles", "Tyk2 selectivity over Jak2"],
 "data": [
  ["CO[C@@]1(c2cc(OC(F)F)cc(-c3cn(C)c4cnc(NC(C)=O)cc34)n2)CCOC1", ">281-fold"],
  ["COc1cc(-c2cn(C)c3cnc(NC(C)=O)cc23)nc([C@]2(CO)CCOC2)c1", ">192-fold"],
  ["CC(=O)Nc1cc2c(-c3cc(C(F)F)cc([C@]4(CO)CCOC4)n3)cn(C)c2cn1", ">347-fold"],
  ["Cn1cc(-c2cncc([C@]3(C)CCOC3)n2)c2cc(NC(N)=O)ncc21", ">1389-fold"],
  ["COCc1cc(-c2cn(C)c3cnc(NC(C)=O)cc23)nc([C@]2(CO)CCOC2)c1", ">171-fold"],
  ["COCc1cc(-c2cn(C)c3cnc(NC(N)=O)cc23)nc([C@]2(OC)CCOC2)c1", ">714-fold"]
]}

Report Tyk2 selectivity over Jak2 for `CO[C@@]1(c2cccc(-c3cn(C)c4cnc(NC(N)=O)cc34)n2)CCOC1` please.
>424-fold

// lookup Tyk2 selectivity over Jak2 for `COCc1cc(-c2cn(C)c3cnc(NC(C)=O)cc23)nc([C@]2([C@H](C)O)CCOC2)c1`
>170-fold
